Experiment: primary screen for suppressors of beta-catenin knockout HCT116 cell growth, colon tumor, human (AID 818);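 note: 0% = Hyamine 1622 control at 20 µM and 100% = untreated cell control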
Conditions: CellTiter-Glo, 60 h, at 10 µM
Hit rate of the full screen: of about 140,000 compounds, about 2,100 (1.5%) were called active.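 Rule for the calls: active = viability at or under a set limit, the compound median less 4 SD (cut at about 6% in these data); inactive = the rest.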 For the sample, actives were picked, then their nearest neighbours and some compounds at random.
Field 'call' accepts active, inactive

// below: answered molecules
N#Cc1cccc(NC(=O)COC(=O)c2ccccc2C(=O)c2ccc(Cl)c([N+](=O)[O-])c2)c1 :: active
O=[N+]([O-])c1ccc(C=Nc2ccc(Cl)cc2Cl)s1 :: active
O=C(/C(=C/c1cccc(Cl)c1)c1nc2ccccc2[nH]1)c1ccccc1 :: active
COC(=O)c1cc(NC(=O)Cc2ccccc2[N+](=O)[O-])ccc1Cl :: inactive

Read the next record carefully.
*Q* Record lookup: outcome of this test for CC(=O)c1sc(NC(=O)c2cccc3ccccc23)nc1C ?
*A* inactive

====

Test: primary screen for suppressors of beta-catenin knockout HCT116 cell growth, colon tumor, human (AID 818);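 note: 0% = Hyamine 1622 control at 20 µM and 100% = untreated cell control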
Conditions: CellTiter-Glo, 60 h, at 10 µM, hits give low values
The campaign covered roughly 140,000 compounds. About 2,100 (1.5%) were called active. This is one part of a sample in which actives are shown more often than they occur.
Kindly apply the following: y if viability is less than 90%, n in every other case.

COc1cccc(-n2c(SCC(=O)c3c[nH]c4ccccc34)nc3ccccc3c2=O)c1 :: y
CCOc1ccc2nc(NC(=O)c3cc([N+](=O)[O-])ccc3N3CCOCC3)sc2c1 :: y
CC(=O)CCC(=O)c1ccc2ccccc2c1 :: n

Read the next record carefully.
*Q* Does Cc1ccc(C(=O)Oc2coc(CSc3nnc(NC(=O)c4cccs4)s3)cc2=O)cc1C have viability strictly under 90%?
*A* n

====

Assay: primary screen for suppressors of beta-catenin knockout HCT116 cell growth, colon tumor, human (AID 818);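 note: 0% = Hyamine 1622 control at 20 µM and 100% = untreated cell control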
Settings: CellTiter-Glo, 60 h, at 10 µM, hits give low values
The campaign covered roughly 140,000 compounds. About 2,100 (1.5%) were called active. The entries come from a sample that favours actives as a whole.
property: viability (%)
Express your answer in %, writing the number without its unit.

*Q* viability for CNC(=O)c1csc(-c2ccccc2)n1 ?
*A* 96.8

*Q* And what about the molecule CC(NC(=O)C(=O)NN=C1CCC(C(C)(C)C)CC1)c1ccccc1 (stereo unspecified) ?
*A* 98.5

*Q* And what about the molecule CCC(=O)Nc1ccc(C(=O)Nc2ccc3c(c2)C(=O)N(CC2CCCO2)C3=O)cc1 (stereo unspecified) ?
*A* 93.3

*Q* And what about the molecule C=CCn1c(CCNC(=O)c2cccs2)n[nH]c1=S ?
*A* 99.3

*Q* And what about the molecule Cn1ncc2c(NNC(=O)Cc3cccc4ccccc34)ncnc21 ?
*A* 86.8

*Q* And what about the molecule Cc1ccc(SCC(=O)c2sc(-c3ccccc3)nc2C)cc1 ?
*A* 94.5

====

This listing pairs molecules with measured viability.
Test: primary screen for suppressors of beta-catenin knockout HCT116 cell growth, colon tumor, human (AID 818);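 note: 0% = Hyamine 1622 control at 20 µM and 100% = untreated cell control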
Details: CellTiter-Glo, 60 h, at 10 µM, hits give low values
The whole screen tested about 140,000 compounds, of which about 2,100 (1.5%) were called active. This excerpt belongs to a sample that is enriched for actives.
Express your answer in %, writing the number without its unit.

# count of solved cases: 6
O=C(CN1C(=O)C2C3CCC(C3)C2C1=O)Oc1ccc2ccccc2c1 (stereo not given) :: 85.5
CC(=O)Nc1ccc(NC(=S)NC(=O)c2ccc([N+](=O)[O-])c(C)c2)cc1 :: 93.3
Cn1cc([N+](=O)[O-])c(C(=O)Nc2cnn(Cc3ccc(F)cc3)c2)n1 :: 8.14
C=C1c2cc(CC)ccc2NC(=O)N1c1ccc(C)cc1 :: 98.3
O=C(CCC(=O)c1cccs1)NCc1ccccc1 :: 88.8
Cc1cc(C(C)(C)C)cc(C)c1N :: 100

*Q* viability for CCOC(=O)c1nn(-c2ccccc2F)c2nc(Nc3ccccc3)cc(=O)n12 ?
*A* 94.3

*Q* And what about the molecule COC(=O)C(NC(=O)c1ccc(OC)cc1)(Nc1ncc(S(=O)(=O)c2ccc([N+](=O)[O-])cc2)s1)C(F)(F)F (stereo not given) ?
*A* 77.8

*Q* And what about the molecule CCCCCCc1cc2cc(-c3nnc(-c4ccccc4)o3)c(=O)oc2cc1O ?
*A* 1.64

*Q* And what about the molecule CCOC(=O)NN1C(=O)c2ccccc2NC1c1cccc(O)c1 (stereo not given) ?
*A* 106

*Q* And what about the molecule Brc1ccc(-c2csc(N/N=C/c3ccc4c(c3)OCO4)n2)cc1 ?
*A* 84.8

*Q* And what about the molecule COc1ccc(O[C@H]2C=C[C@@H](c3ccccc3)O[C@@H]2CO/N=C/C[C@@H]2C=C[C@H](OC(C)=O)[C@@H](COC(C)=O)O2)cc1 ?
*A* 88.8

====

Assay: primary screen for suppressors of beta-catenin knockout HCT116 cell growth, colon tumor, human (AID 818);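 note: 0% = Hyamine 1622 control at 20 µM and 100% = untreated cell control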
Details: CellTiter-Glo, 60 h, at 10 µM, hits give low values
Screen size: about 140,000 compounds; about 2,100 (1.5%) were called active. Many of the other results were omitted from the sample, so actives are more common in it than they were.
This listing pairs compounds with measured viability.
Express your answer in %, writing the number without its unit.

# count of solved cases: 6
O=C(O)C1CC=C(Cl)CC1C(=O)NCc1ccccc1 (stereo unspecified) :: 90
CC(C)(C)NC(=O)C(=O)NCc1ccncc1 :: 98.5
C=CCOc1c(Br)cc(/C=N\n2nnnc2N)cc1OC :: 85.3
CC(C)OCCCNc1ncnc2c1[nH]c1ccc(F)cc12 :: 9.7
CCc1ccc(-c2nn(-c3ccccc3)cc2CSC(=N)N)cc1 :: 1.57
CCN1CCCC1CNc1ncnc2c1[nH]c1ccc(F)cc12 (stereo unspecified) :: 82.2

Shifting focus to the compound that follows.
*Q* viability for Fc1ccc2[nH]c3c(N4CCSCC4)ncnc3c2c1 ?
*A* 5.04

====

Test: primary screen for suppressors of beta-catenin knockout HCT116 cell growth, colon tumor, human (AID 818);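 note: 0% = Hyamine 1622 control at 20 µM and 100% = untreated cell control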
Settings: CellTiter-Glo, 60 h, at 10 µM
The campaign covered roughly 140,000 compounds. About 2,100 (1.5%) were called active.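 How the source made its calls: active means viability at or under a set limit, the compound median less 4 SD (cut at about 6% in these data); inactive means the rest.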 The full list was thinned out, with actives kept by preference.
Field 'call' accepts active, inactive

// below: answered molecules
O=c1[nH]n(-c2cccc(Cl)c2)c2ncccc12 :: inactive
CCC(C(=O)OCC(=O)Nc1ccccc1-c1ccccc1)c1ccccc1 (configuration not stated) :: inactive
S=C1SCN(CCN2CCOCC2)CN1Cc1ccccc1 :: inactive
Cc1ccc(Sc2ccncc2S(N)(=O)=O)cc1 :: inactive

*Q* Record lookup: outcome of this test for C/C(=N\NC(=O)Cc1ccc(F)cc1)c1ccc(F)cc1 ?
*A* inactive

*Q* And what about the molecule C/C(=N/NC(=O)CSc1ccccn1)c1ccc([N+](=O)[O-])cc1 ?
*A* inactive

*Q* And what about the molecule C/C(=N\NC(=O)Cc1ccc(Cl)cc1)c1ccccn1 ?
*A* active

*Q* And what about the molecule CC(C)(C)c1ccc(C(=O)CSc2ncn[nH]2)cc1 ?
*A* inactive

*Q* And what about the molecule COc1ccc(C(CC(=O)O)NC(=O)Cc2ccccc2)cc1 (configuration not stated) ?
*A* inactive

*Q* And what about the molecule CN(c1ccccc1)S(=O)(=O)c1ccc(Cl)c(C(=O)NCCc2c[nH]c3ccccc23)c1 ?
*A* inactive

*Q* And what about the molecule Nc1c(C(=O)NCc2ccccc2)nnn1Cc1cccc(Cl)c1 ?
*A* inactive

*Q* And what about the molecule COc1ccc(C/C(C)=N/NC(=O)c2ccncc2)cc1 ?
*A* inactive

====

Experiment: primary screen for suppressors of beta-catenin knockout HCT116 cell growth, colon tumor, human (AID 818);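 note: 0% = Hyamine 1622 control at 20 µM and 100% = untreated cell control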
Conditions: CellTiter-Glo, 60 h, at 10 µM
Among all 140,000 compounds or so, about 2,100 (1.5%) were called active.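 How the source made its calls: active means viability at or under a set limit, the compound median less 4 SD (cut at about 6% in these data); inactive means the rest.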 The entries come from a sample that favours actives as a whole.
Field 'call' accepts True (active), False (inactive)

// below: answered molecules
Cc1cc(C)c2nc3nc(C)cc(C)c3c(N)c2c1 :: True
CCOc1ncccc1C(=O)N(CC)CC(=O)Nc1ccc(NC(C)=O)cc1 :: False
O=C(Nc1cccc2ccccc12)c1onc2c1CCCC2 :: True
CCOc1ccc(Br)cc1S(=O)(=O)Nc1cccc(S(=O)(=O)N(CC)CC)c1 :: False
CC(C)[C@H](NC(=O)c1ccc(F)cc1)C(=O)OCC(=O)NC(=O)c1cccn1C :: False

Read the next record carefully.
*Q* Record lookup: outcome of this test for O=C(Nc1c2c(nc3ccccc13)CCCC2)c1ccccc1Br ?
*A* False

====

Assay: primary screen for suppressors of beta-catenin knockout HCT116 cell growth, colon tumor, human (AID 818);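 note: 0% = Hyamine 1622 control at 20 µM and 100% = untreated cell control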
Conditions: CellTiter-Glo, 60 h, at 10 µM
Out of some 140,000 compounds screened, about 2,100 (1.5%) were called active.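 How the source made its calls: active means viability at or under a set limit, the compound median less 4 SD (cut at about 6% in these data); inactive means the rest.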 This is one part of a sample in which actives are shown more often than they occur.
Field 'call' accepts 1 = active, -1 = inactive

S=C(NCc1ccc(Cl)cc1)NC12CC3CC(CC(C3)C1)C2 :: 1

*Q* Record lookup: outcome of this test for Cc1cccc(N2CCN(C(=O)c3ccccc3NC(=O)C3CCCCC3C(=O)O)CC2)c1 (centres undefined) ?
*A* -1

*Q* And what about the molecule Oc1c(CN2CCN(c3ccc(F)cc3)CC2)cc(Cl)c2cccnc12 ?
*A* 1

*Q* And what about the molecule CN=C1S/C(=C\c2ccc(Sc3ccc(Cl)cc3)o2)C(=O)N1C ?
*A* -1

*Q* And what about the molecule COc1ccccc1OCc1ccc(C(=O)N2CCN(C)CC2)o1 ?
*A* -1

*Q* And what about the molecule CCCOc1ccc(C(=O)C(CCC(CNCC)C(=O)c2ccc(OCCC)cc2)CNCC)cc1 (centres undefined) ?
*A* 1

*Q* And what about the molecule COc1ccc(Oc2c(Cl)cnn(-c3ccccc3)c2=O)cc1 ?
*A* 1

*Q* And what about the molecule O=C(NCc1ccc(Cl)c(Cl)c1)c1cccnc1 ?
*A* -1

*Q* And what about the molecule COC1=CCC2([N+](=O)[O-])CN(CC(=O)O)CC1([N+](=O)[O-])C2 (centres undefined) ?
*A* -1

*Q* And what about the molecule COc1ccccc1N1CCN(Cc2nnnn2CCc2ccccc2)CC1 ?
*A* -1

*Q* And what about the molecule CSc1nc(-c2ccccc2)nc(C(Cl)Cl)n1 ?
*A* 1

*Q* And what about the molecule CCN(CC)CCNCc1ccc(OCc2ccc(Cl)nc2)c(OC)c1 ?
*A* -1

*Q* And what about the molecule COC(=O)c1c(NC(=O)CN2CCN(S(=O)(=O)c3ccccc3[N+](=O)[O-])CC2)sc2c1CCC(C)C2 (centres undefined) ?
*A* -1

*Q* And what about the molecule CN(C)S(=O)(=O)c1ccc(N2CCCC2=O)c([N+](=O)[O-])c1 ?
*A* -1

*Q* And what about the molecule CCN(C(=O)COc1cccnc1[N+](=O)[O-])C1CCS(=O)(=O)C1 (centres undefined) ?
*A* -1
